Hi there, I'd appreciate the recorded Fold Change to Chimeric Ab for every entry that follows.
Biological target: T1, human CD33 (human, UniProt P20138 18-259, limits assumed)
T1 construct: Human CD33 immobilized on the BLI sensor tip or the BIAcore C1 chip; also called Siglec-3
T1 sequence (P20138 18-259 limits assumed): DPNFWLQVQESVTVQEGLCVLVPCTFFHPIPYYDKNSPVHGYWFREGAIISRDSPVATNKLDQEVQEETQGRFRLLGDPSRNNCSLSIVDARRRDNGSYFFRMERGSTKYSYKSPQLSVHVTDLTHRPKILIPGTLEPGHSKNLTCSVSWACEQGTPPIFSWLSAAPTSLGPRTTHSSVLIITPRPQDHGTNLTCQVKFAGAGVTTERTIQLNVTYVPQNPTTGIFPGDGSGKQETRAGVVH
Experiment: SPR (BIAcore), Fab over CD33 on C1 chip
Provide only the numeric value, understood in fold.

Exercise: For AB-64.1.8 (antibody, V domains shown, Variant of AB-64.1) VH: QVQLVQSGAEVKKPGASVKISCKASGYTFTDYNLHWVRQAPGQGLEWIGFIYPSNQITGYAQKFQGRATLTVDNSASTAYMELSSLRSEDTAVYYCARSDVDYFDYWGQGTLLTVSS VL: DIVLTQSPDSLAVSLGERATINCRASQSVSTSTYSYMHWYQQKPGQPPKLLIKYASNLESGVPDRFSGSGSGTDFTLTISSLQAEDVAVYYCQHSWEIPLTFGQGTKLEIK , what is its reported Fold Change to Chimeric Ab?
Solution: 9.29

Exercise: For AB-64.5 (antibody, V domains shown) VH: QVQLVQSGAEVKKPGASVKISCKASGYTFTDYNYHWVRQAPGQGLEWIGFIYPSNGITGYAQKFFGRATLTVDNSTSTAYMELSSLRSEDTAVYYCARSDVDYFDYWGQGTLLTVSS VL: DIVLTQSPDSLAVSLGERATINCRASQSVGTSTYSYMHWYQQKPGQPPKLLIKYASNLESGVPDRFSGSGSGTDFTLTISSLQAEDVAVYYCQHSWEIPLTFGQGTKLEIK , what is its reported Fold Change to Chimeric Ab?
Solution: 162

Exercise: For AB-H64 (antibody, V domains shown, Humanized variant of murine 2F5.1; also called parental humanized antibody) VH: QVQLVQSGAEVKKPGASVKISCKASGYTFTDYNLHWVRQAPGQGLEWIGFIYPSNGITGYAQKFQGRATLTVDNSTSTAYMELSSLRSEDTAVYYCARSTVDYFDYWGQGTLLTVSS VL: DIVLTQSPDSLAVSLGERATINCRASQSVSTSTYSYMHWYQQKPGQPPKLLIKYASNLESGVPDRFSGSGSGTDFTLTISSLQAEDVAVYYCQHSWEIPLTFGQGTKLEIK , what is its reported Fold Change to Chimeric Ab?
Solution: 0.76
